The measured values listed here are drawn from patent US20060069132A1.

- Tested on: large crabgrass
- experiment.summary: Test A pre-/postemergence herbicide test
- Type: in vivo, Digitaria sanguinalis
- experimental.context: Preemergence, 500 g ai/ha; visual rating, 0 to 100 scale (0 no effect, 100 complete control)
- Text: […] Plants ranged in height from 2 to 10 cm and were in the one- to two-leaf stage for the postemergence treatment. Treated plants and untreated controls were maintained in a greenhouse for approximately ten days, after which time all treated plants were compared to untreated controls and visually evaluated for injury. […]
Parameter threshold = 60. Response is TRUE when Crabgrass, Large plant response rating meets or exceeds it, else FALSE.

Past entries and their recorded results:
input.smiles | tested.system | answer.label
CC(=NO)c1cccc(NC(=O)c2cc(C(C)(C)C)nn2C)c1 | large crabgrass | TRUE
CCn1nc(C(C)(C)C)cc1C(=O)Nc1cccc(C(=O)NCC(C)C)c1 | large crabgrass | TRUE
CCn1nc(C(C)(C)C)cc1C(=O)Nc1cc(C(=O)OC(C)(C)C)ccc1F | large crabgrass | FALSE
CCn1nc(C(C)(C)C)cc1C(=O)Nc1cccc(C(=O)NC2CC2)c1 | large crabgrass | FALSE
CCN1CCc2c(NC(=O)c3cc(C(C)(C)C)nn3CC)cccc2C1=O | large crabgrass | TRUE

Is Crabgrass, Large plant response rating for `CCn1nc(C(C)(C)C)cc1C(=O)Nc1cccc(OCCCF)c1` at or above 60?
TRUE

Is Crabgrass, Large plant response rating for `CN1Cc2c(NC(=O)c3cc(C(C)(C)C)nn3C)cccc2C1=O` at or above 60?
FALSE

====

- Test system: morningglory
- experiment.summary: Test B pre-/postemergence herbicide test
- Type: in vivo, Ipomoea coccinea
- experimental.context: 500 g ai/ha; visual rating 0-100, 0 no effect, 100 complete control; preemergence
measurement.type: Plant response rating, Morningglory
Quick one: just the number, no unit, thanks!

Example cases with answers are listed next.
molecule | Plant response rating, Morningglory
CCc1nc(C(C)(C)C)sc1C(=O)Nc1cccc(C(=O)NCC2CC2)c1 [Compound 212] | 60
CCc1nc(C(C)(C)C)sc1C(=O)Nc1cccc(C(=O)N(CC)CC)c1 [Compound 205] | 30
Cc1nn(C(C)(C)C)cc1C(=O)Nc1cccc(OC(C)C)c1 [Compound 189] | 20
CCn1nc(C(C)(C)C)cc1C(=O)Nc1cc(C(=O)NCC2CC2)ccn1 [Compound 155] | 40
CC(=O)c1cccc(NC(=O)c2cc(C(C)(C)C)nn2CC(F)(F)F)c1 [Compound 126] | 20

Then this molecule:
Requested read-out Plant response rating, Morningglory, target or system morningglory, entry CCc1nn(C(C)(C)C)cc1C(=O)Nc1cccc(C(C)=O)c1 [Compound 187]
30

====

# Plant response rating (0 = no effect, 100 = complete control), Ragweed listing for each entry below
- Tested on: common ragweed
- experiment.summary: Test C pre-/postemergence herbicide test
- Format: in vivo, Ambrosia elatior
- experimental.context: 62 g ai/ha; preemergence
Quick one: just the number, no unit, thanks!

molecule | recorded.value
CCCCOc1cccc(NC(=O)c2cc(C(C)(C)C)nn2CC)c1 [Compound 137] | 0
CCn1nc(C(C)(C)C)cc1C(=O)Nc1cccc(C(=O)NCC2CC2)c1 [Compound 62] | 10
CC(=O)c1cccc(NC(=O)c2cc(C(C)(C)C)nn2CCF)c1 [Compound 128] | 10
CCOC(=O)c1cc(NC(=O)c2cc(C(C)(C)C)nn2CC)ccc1OCC [Compound 95] | 50
CCn1nc(C(C)(C)C)cc1C(=O)Nc1cccc(C(=O)NC2CC2)c1 [Compound 44] | 0
CCNC(=O)c1cccc(NC(=O)c2cc(C(C)(C)C)nn2CCF)c1 [Compound 35] | 10

Then this molecule:
Would you kindly share the measured Plant response rating (0 = no effect, 100 = complete control), Ragweed for CCNC(=O)c1cccc(NC(=O)c2cc(C(C)(C)C)nn2CC)n1 [Compound 144] ?
0
